Where these numbers come from: ChEMBL document CHEMBL2057208

tested.on: Calmodulin-domain protein kinase 1 (Toxoplasma gondii)
assay.protocol: Inhibition of Toxoplasma gondii CDPK1
Decide using IC50 alone. Strictly below 100 nM: Y. Equal to or above 100 nM: N.

Solved cases below.
                           molecular_string  category
0  CC(C)(C)Cn1c(N)nc2ccc(C(=O)c3ccccc3)cc21         Y
1  O=C(c1ccccc1)c1ccc2nc(NC(=O)[C@@H]3CCCN3)[nH]c2c1         N
2  O=C(CC1CCNCC1)Nc1nc2ccc(C(=O)c3ccccc3)cc2[nH]1         Y
3  O=C(NCCO)Nc1nc2ccc(C(=O)c3ccccc3)cc2[nH]1         N
4  Nc1nc2ccc(C(=O)c3ccccc3)cc2n1C[C@H]1CCCN1         N
5  CN1CCC(Cn2c(N)nc3ccc(C(=O)c4ccccc4)cc32)CC1         N
6  Nc1nc2ccc(C(=O)c3ccccc3)cc2n1C[C@H]1CCNC1         N
7  O=C(NCCC1CCNCC1)Nc1nc2ccc(C(=O)c3ccccc3)cc2[nH]1         N

stdin: API: query returns whether the compound falls strictly under 100 nM in IC50. Query: COC(=O)Nc1nc2ccc(C(=O)c3ccccc3)cc2[nH]1
stdout: N

stdin: Now the compound O=C(CCCC1CCNCC1)Nc1nc2ccc(C(=O)c3ccccc3)cc2[nH]1
stdout: Y

----------
Kindly state log10 of IC50 for each of the entries shown.
tested.on: Calmodulin-domain protein kinase 1 (Toxoplasma gondii)
Sequence (Q9BJF5 whole entry): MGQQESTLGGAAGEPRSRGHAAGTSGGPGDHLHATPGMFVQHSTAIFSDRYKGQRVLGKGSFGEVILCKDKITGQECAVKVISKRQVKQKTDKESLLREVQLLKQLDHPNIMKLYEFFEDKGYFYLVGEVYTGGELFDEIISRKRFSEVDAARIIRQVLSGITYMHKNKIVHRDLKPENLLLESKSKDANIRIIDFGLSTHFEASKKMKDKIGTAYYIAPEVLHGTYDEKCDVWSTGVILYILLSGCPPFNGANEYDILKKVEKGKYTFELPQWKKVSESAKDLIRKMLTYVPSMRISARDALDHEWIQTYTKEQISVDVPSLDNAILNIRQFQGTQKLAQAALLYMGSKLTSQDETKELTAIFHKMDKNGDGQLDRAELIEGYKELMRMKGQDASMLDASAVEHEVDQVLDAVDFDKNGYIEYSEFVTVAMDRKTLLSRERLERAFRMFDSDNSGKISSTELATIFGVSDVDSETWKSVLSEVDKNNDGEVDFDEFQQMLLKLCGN
assay.protocol: Inhibition of Toxoplasma gondii CDPK1
The figures below represent log10 of IC50, where IC50 is stated in nM.

Would you please look over these solved cases?
>>> print(df.to_string())
                                   compound  observed_value
0   Nc1nc2ccc(C(=O)c3ccccc3)cc2n1CCN1CCCCC1            2.20
1          Nc1nc2ccc(C(=O)c3ccccc3)cc2[nH]1            2.36
2  CN1CCC[C@@H]1Cn1c(N)nc2ccc(C(=O)c3ccccc3)cc21            2.82
3  CN1CCC[C@H]1CCn1c(N)nc2ccc(C(=O)c3ccccc3)cc21            1.83
4  O=C(NCCCCO)Nc1nc2ccc(C(=O)c3ccccc3)cc2[nH]1            2.58
5  CN1CCC(CCn2c(N)nc3ccc(C(=O)c4ccccc4)cc32)CC1            1.48
6  Nc1nc2ccc(C(=O)c3ccccc3)cc2n1CC[C@H]1CCCN1            1.81
7  NCCC(=O)Nc1nc2ccc(C(=O)c3ccccc3)cc2[nH]1            2.26
8     CC(C)Cn1c(N)nc2ccc(C(=O)c3ccccc3)cc21            1.83
9  CN1CCN(CCCn2c(N)nc3ccc(C(=O)c4ccccc4)cc32)CC1            2.26

Quick request: log10 of IC50 for each listed item, please.
1. CN1CCN(CCn2c(N)nc3ccc(C(=O)c4ccccc4)cc32)CC1
2. NCCCCNC(=O)Nc1nc2ccc(C(=O)c3ccccc3)cc2[nH]1
3. N[C@@H](Cc1ccc(O)cc1)C(=O)Nc1nc2ccc(C(=O)c3ccccc3)cc2[nH]1
4. NCCCCCCC(=O)Nc1nc2ccc(C(=O)c3ccccc3)cc2[nH]1
5. O=C(NCCC1CCCNC1)Nc1nc2ccc(C(=O)c3ccccc3)cc2[nH]1 (stereo not drawn)
6. Nc1nc2ccc(C(=O)c3ccccc3)cc2n1CCN1CCOCC1
7. Nc1nc2ccc(C(=O)c3ccccc3)cc2n1CCc1ccccn1

stdout:
1.63
2.15
2.72
1.34
2.08
2.34
2.41

----------
assay.protocol: Inhibition of Cryptosporidium parvum CDPK1
parameter: pIC50
Answers are plain numbers, as −log10 of the molar value.

Would you please look over these solved cases?
                                   compound  observed_value
0  NCCCCNC(=O)Nc1nc2ccc(C(=O)c3ccccc3)cc2[nH]1            6.82
1  O=C(NCCC1CCCNC1)Nc1nc2ccc(C(=O)c3ccccc3)cc2[nH]1 (stereo unspecified)            6.80
2  CN1CCC[C@@H]1Cn1c(N)nc2ccc(C(=O)c3ccccc3)cc21            6.10
3  Nc1nc2ccc(C(=O)c3ccccc3)cc2n1C[C@H]1CCNC1            6.92
4          Nc1nc2ccc(C(=O)c3ccccc3)cc2[nH]1            6.22
5  CN1CCN(CCn2c(N)nc3ccc(C(=O)c4ccccc4)cc32)CC1            7.44
6  O=C(NCCO)Nc1nc2cc(C(=O)c3ccccc3)ccc2[nH]1            6.74
7   Nc1nc2ccc(C(=O)c3ccccc3)cc2n1CCN1CCOCC1            6.41
8  Nc1nc2ccc(C(=O)c3ccccc3)cc2n1C[C@H]1CCCN1            6.06
9  NCCCCCCC(=O)Nc1nc2ccc(C(=O)c3ccccc3)cc2[nH]1            7.14

As a next step, examine the compound that follows.
stdin: // returns reported pIC50 for input CN1CCC(CCn2c(N)nc3ccc(C(=O)c4ccccc4)cc32)CC1
stdout: 7.59

----------
Kindly state IC50 for each of the entries shown.
tested.on: Tyrosine-protein kinase ABL1 (Homo sapiens)
Sequence (P00519 whole entry): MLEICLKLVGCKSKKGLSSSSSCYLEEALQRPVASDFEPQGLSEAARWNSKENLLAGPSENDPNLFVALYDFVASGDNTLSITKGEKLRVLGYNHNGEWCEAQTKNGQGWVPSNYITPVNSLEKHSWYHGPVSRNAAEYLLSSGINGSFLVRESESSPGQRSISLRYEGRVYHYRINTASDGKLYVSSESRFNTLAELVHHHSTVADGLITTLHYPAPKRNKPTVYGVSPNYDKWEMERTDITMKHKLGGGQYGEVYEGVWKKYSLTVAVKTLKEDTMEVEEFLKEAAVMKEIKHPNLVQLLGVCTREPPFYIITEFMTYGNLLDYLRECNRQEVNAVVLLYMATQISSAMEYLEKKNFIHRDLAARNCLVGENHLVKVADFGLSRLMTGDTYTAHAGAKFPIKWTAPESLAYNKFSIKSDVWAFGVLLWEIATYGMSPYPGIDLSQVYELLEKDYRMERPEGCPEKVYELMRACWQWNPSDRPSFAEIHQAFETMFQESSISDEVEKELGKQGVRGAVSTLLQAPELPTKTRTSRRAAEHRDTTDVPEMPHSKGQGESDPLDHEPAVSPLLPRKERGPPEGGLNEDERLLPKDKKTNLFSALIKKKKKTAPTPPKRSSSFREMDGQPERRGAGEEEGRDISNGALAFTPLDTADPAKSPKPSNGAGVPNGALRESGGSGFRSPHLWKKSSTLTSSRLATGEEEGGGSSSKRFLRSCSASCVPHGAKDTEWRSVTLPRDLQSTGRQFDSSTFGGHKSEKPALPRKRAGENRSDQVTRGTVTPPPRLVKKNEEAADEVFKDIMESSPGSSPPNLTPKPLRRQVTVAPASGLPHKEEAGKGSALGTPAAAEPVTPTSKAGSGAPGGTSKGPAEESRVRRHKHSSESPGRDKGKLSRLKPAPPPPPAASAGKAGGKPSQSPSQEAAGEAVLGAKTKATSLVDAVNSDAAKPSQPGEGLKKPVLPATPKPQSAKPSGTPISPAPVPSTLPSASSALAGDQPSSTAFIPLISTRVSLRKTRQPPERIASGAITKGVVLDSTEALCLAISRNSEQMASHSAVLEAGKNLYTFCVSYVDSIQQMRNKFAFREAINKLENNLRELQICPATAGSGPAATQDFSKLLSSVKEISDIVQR

In [3]: df
Out[3]:
                                   compound  observed_value
0  Nc1nc2ccc(C(=O)c3ccccc3)cc2n1CC[C@@H]1CCCN1         > 10 µM
1  COC(=O)Nc1nc2ccc(C(=O)c3ccccc3)cc2[nH]1 [MEBENDAZOLE]            5 µM

stdin: Report IC50 for Nc1nc2ccc(C(=O)c3ccccc3)cc2n1CCC1CCNCC1 tested on Tyrosine-protein kinase ABL1 (Homo sapiens).
stdout: > 10 µM

----------
assay.protocol: Inhibition of Cryptosporidium parvum CDPK1
Kindly state IC50 for each of the entries shown.
One number for each entry, in nM.

Quick request: IC50 for each listed item, please.
1. Nc1nc2ccc(C(=O)c3ccccc3)cc2n1CC[C@@H]1CCCN1
2. CN1CCC[C@H]1CCn1c(N)nc2ccc(C(=O)c3ccccc3)cc21
3. N[C@@H](Cc1c[nH]cn1)C(=O)Nc1nc2ccc(C(=O)c3ccccc3)cc2[nH]1

stdout:
[30, 71, 320]

Quick request: IC50 for each listed item, please.
1. NCCC(=O)Nc1nc2ccc(C(=O)c3ccccc3)cc2[nH]1
2. O=C(CCC1CCNCC1)Nc1nc2ccc(C(=O)c3ccccc3)cc2[nH]1
3. CC(C)(C)Cn1c(N)nc2ccc(C(=O)c3ccccc3)cc21
4. Nc1nc2ccc(C(=O)c3ccccc3)cc2n1CC[C@H]1CCCN1
5. CN1CCC(Cn2c(N)nc3ccc(C(=O)c4ccccc4)cc32)CC1
6. N[C@@H](Cc1ccc(O)cc1)C(=O)Nc1nc2ccc(C(=O)c3ccccc3)cc2[nH]1

stdout:
1. 130
2. 110
3. 130
4. 95
5. 260
6. 1410

----------
assay.protocol: Inhibition of Cryptosporidium parvum CDPK1
parameter: pIC50
Numbers only, as −log10 of the molar value.

Would you please look over these solved cases?
>>> df
                           molecular_string  parameter  observed_value
0     CC(C)Cn1c(N)nc2ccc(C(=O)c3ccccc3)cc21      pIC50            6.64
1   Nc1nc2ccc(C(=O)c3ccccc3)cc2n1CCN1CCCCC1      pIC50            6.52
2  NCCCC(=O)Nc1nc2ccc(C(=O)c3ccccc3)cc2[nH]1      pIC50            7.04
3   COC(=O)Nc1nc2cc(C(=O)c3ccccc3)ccc2[nH]1      pIC50            6.04

stdin: // returns reported pIC50 for input Nc1nc2ccc(C(=O)c3ccccc3)cc2n1C[C@@H]1CCCN1
stdout: 6.59
